Collected MIC values appear next to each entry.
Tested on: N. gonorrhoeae clinical isolates
Assay: MIC, agar dilution (CLSI)
Format: cell-based, Neisseria gonorrhoeae
Details: Neisseria gonorrhoeae, strain CDC22 (GCREF2012 019); read-out: MIC
All answers are understood in µg/mL, so give the number only.

Some solved cases for reference:
Looking up CC[C@H]1OC(=O)[C@H](C)[C@@H](O[C@H]2C[C@@](C)(OC)[C@@H](O)[C@H](C)O2)[C@H](C)[C@@H](O[C@@H]2O[C@H](C)C[C@H](N(C)C)[C@H]2O)[C@](C)(O)C[C@@H](C)CN(C)[C@H](C)[C@@H](O)[C@]1(C)O , I see its MIC listed as 0.5

In plain terms, CNc1cc(F)cc2c1[nH]c1nc(Oc3cnc(C)nc3)nc(N3CCC4(CC3)CO[C@@H](CO)C4)c12 has a documented MIC of 0.03

In plain terms, CO/N=C(\C(=O)N[C@@H]1C(=O)N2C(C(=O)O)=C(CSc3nc(=O)c(=O)[nH]n3C)CS[C@H]12)c1csc(N)n1 has a documented MIC of 0.008

We now examine a further molecule.
Field MIC (entry C=CC1=C(C(=O)O)N2C(=O)[C@@H](NC(=O)/C(=N\OCC(=O)O)c3csc(N)n3)[C@H]2SC1 ) reads 0.031

###

MIC for assorted compounds
Tested on: N. gonorrhoeae clinical isolates
Assay: MIC, agar dilution (CLSI)
Assay type: cell-based, Neisseria gonorrhoeae
Details: Neisseria gonorrhoeae, strain CDC41 (GCREF2012 038); read-out: MIC
Only the number, expressed in µg/mL, is required.

These solved cases illustrate the format of a correct answer.
Record CO/N=C(\C(=O)N[C@@H]1C(=O)N2C(C(=O)O)=C(CSc3nc(=O)c(=O)[nH]n3C)CS[C@H]12)c1csc(N)n1 [Cro, ceftriaxone] , field MIC: 0.031

# MIC of C=CC1=C(C(=O)O)N2C(=O)[C@@H](NC(=O)/C(=N\OCC(=O)O)c3csc(N)n3)[C@H]2SC1 [Cfx, cefixime] = 0.25

// sample CC[C@H]1OC(=O)[C@H](C)[C@@H](O[C@H]2C[C@@](C)(OC)[C@@H](O)[C@H](C)O2)[C@H](C)[C@@H](O[C@@H]2O[C@H](C)C[C@H](N(C)C)[C@H]2O)[C@](C)(O)C[C@@H](C)CN(C)[C@H](C)[C@@H](O)[C@]1(C)O [Azi, azithromycin] , its MIC was 0.25

Next compound, please.
Entry CNc1cc(F)cc2c1[nH]c1nc(Oc3cnc(C)nc3)nc(N3CCC4(CC3)CO[C@@H](CO)C4)c12 [JSF-2414] ; MIC = 0.0039

###

# microsomal CLint at 1 μM listing for each entry below
Test: Liver microsome stability, mouse
Format: in vitro ADME
Conditions: male, CD-1, mouse, liver microsomes, pH 7.4; read-out: MLM Clint
The response must be a number in µL/min/mg with no trailing unit.

get_value(item= CNc1cc(F)cc2c1[nH]c1nc(Oc3cnc(C)nc3)nc(N3CCC4(CC3)CO[C@@H](COP(=O)(O)O)C4)c12 , readout=microsomal CLint at 1 μM) returns 0.5

More entries:
Item: CNc1cc(F)cc2c1[nH]c1nc(Oc3cnc(C)nc3)nc(N3CCC4(CC3)CO[C@@H](CO)C4)c12 | microsomal CLint at 1 μM: 11.9

###

Target: hERG K+ channel (Homo sapiens, UniProt Q12809)
Sequence (Q12809 whole entry): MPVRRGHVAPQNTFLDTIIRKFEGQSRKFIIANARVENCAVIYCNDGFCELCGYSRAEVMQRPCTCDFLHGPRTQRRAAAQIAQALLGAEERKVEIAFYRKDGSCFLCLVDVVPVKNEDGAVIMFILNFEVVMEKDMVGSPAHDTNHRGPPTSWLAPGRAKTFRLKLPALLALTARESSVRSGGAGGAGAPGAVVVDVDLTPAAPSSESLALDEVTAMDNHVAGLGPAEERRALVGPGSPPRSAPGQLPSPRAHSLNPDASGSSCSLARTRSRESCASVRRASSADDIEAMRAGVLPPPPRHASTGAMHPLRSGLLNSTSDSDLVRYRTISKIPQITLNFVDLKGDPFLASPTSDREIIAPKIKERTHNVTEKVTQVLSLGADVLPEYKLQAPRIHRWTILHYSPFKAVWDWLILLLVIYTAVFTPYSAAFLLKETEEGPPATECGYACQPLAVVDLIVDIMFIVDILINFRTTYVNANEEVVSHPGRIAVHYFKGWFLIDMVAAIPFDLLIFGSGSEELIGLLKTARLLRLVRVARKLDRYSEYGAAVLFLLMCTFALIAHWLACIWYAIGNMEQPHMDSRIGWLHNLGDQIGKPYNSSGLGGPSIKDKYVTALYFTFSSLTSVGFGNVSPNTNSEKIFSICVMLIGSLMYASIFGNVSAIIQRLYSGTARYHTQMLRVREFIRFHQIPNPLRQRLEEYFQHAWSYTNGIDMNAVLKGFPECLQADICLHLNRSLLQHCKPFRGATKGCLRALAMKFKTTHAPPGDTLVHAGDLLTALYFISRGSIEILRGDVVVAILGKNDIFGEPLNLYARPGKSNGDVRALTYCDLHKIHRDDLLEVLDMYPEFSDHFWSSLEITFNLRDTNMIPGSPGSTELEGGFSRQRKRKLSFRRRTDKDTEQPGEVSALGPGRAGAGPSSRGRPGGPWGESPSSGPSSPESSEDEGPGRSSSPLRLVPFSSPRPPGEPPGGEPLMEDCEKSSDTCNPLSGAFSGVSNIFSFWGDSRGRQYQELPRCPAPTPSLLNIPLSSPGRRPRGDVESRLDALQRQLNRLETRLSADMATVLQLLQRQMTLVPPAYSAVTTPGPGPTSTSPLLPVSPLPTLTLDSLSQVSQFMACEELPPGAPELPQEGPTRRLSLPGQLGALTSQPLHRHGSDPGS
Assay: hERG inhibition, whole-cell patch clamp in HEK-293 cells
Details: pH 7.4
quantity.kind: IC50 at 3 min

So the reported IC50 at 3 min for CNc1cc(F)cc2c1[nH]c1nc(Oc3cnc(C)nc3)nc(N3CCC4(CC3)CO[C@@H](CO)C4)c12 , on hERG K+ channel (Homo sapiens, UniProt Q12809), turned out to be > 50 µM

###

Measured MIC of individual entries
System: N. gonorrhoeae clinical isolates
Experiment: MIC, agar dilution (CLSI)
Type: cell-based, Neisseria gonorrhoeae
Settings: Neisseria gonorrhoeae, strain CDC27 (GCREF2012 024); read-out: MIC
Note: unit µg/mL is implicit; provide only the numeric part.

Data point: CO/N=C(\C(=O)N[C@@H]1C(=O)N2C(C(=O)O)=C(CSc3nc(=O)c(=O)[nH]n3C)CS[C@H]12)c1csc(N)n1 ; MIC = 0.031

For record C=CC1=C(C(=O)O)N2C(=O)[C@@H](NC(=O)/C(=N\OCC(=O)O)c3csc(N)n3)[C@H]2SC1 the listed MIC is 0.063

Summary for this compound, CNc1cc(F)cc2c1[nH]c1nc(Oc3cnc(C)nc3)nc(N3CCC4(CC3)CO[C@@H](CO)C4)c12 : MIC is 0.0039

The recorded MIC for entry CC[C@H]1OC(=O)[C@H](C)[C@@H](O[C@H]2C[C@@](C)(OC)[C@@H](O)[C@H](C)O2)[C@H](C)[C@@H](O[C@@H]2O[C@H](C)C[C@H](N(C)C)[C@H]2O)[C@](C)(O)C[C@@H](C)CN(C)[C@H](C)[C@@H](O)[C@]1(C)O equals 0.25

###

System: N. gonorrhoeae clinical isolates
Test: MIC, agar dilution (CLSI)
Format: cell-based, Neisseria gonorrhoeae
Details: Neisseria gonorrhoeae, strain CDC35 (GCREF2012 032); read-out: MIC
// MIC lookup, one value per entry
// units = µg/mL; emit number, no label

The reported MIC of the compound C=CC1=C(C(=O)O)N2C(=O)[C@@H](NC(=O)/C(=N\OCC(=O)O)c3csc(N)n3)[C@H]2SC1 was 0.25

Looking up CO/N=C(\C(=O)N[C@@H]1C(=O)N2C(C(=O)O)=C(CSc3nc(=O)c(=O)[nH]n3C)CS[C@H]12)c1csc(N)n1 , I see its MIC listed as 0.125

Input CC[C@H]1OC(=O)[C@H](C)[C@@H](O[C@H]2C[C@@](C)(OC)[C@@H](O)[C@H](C)O2)[C@H](C)[C@@H](O[C@@H]2O[C@H](C)C[C@H](N(C)C)[C@H]2O)[C@](C)(O)C[C@@H](C)CN(C)[C@H](C)[C@@H](O)[C@]1(C)O . Output MIC: 0.25

compound CNc1cc(F)cc2c1[nH]c1nc(Oc3cnc(C)nc3)nc(N3CCC4(CC3)CO[C@@H](CO)C4)c12 , MIC observed: 0.0039

###

Tested on: N. gonorrhoeae clinical isolates
Experiment: MIC, agar dilution (CLSI)
Format: cell-based, Neisseria gonorrhoeae
Details: Neisseria gonorrhoeae; 96 clinical isolates; read-out: MIC90
Below is a list of entries, each paired with its recorded MIC90 value.
Number in µg/mL, nothing else.

Example results:
Short answer for CC[C@H]1OC(=O)[C@H](C)[C@@H](O[C@H]2C[C@@](C)(OC)[C@@H](O)[C@H](C)O2)[C@H](C)[C@@H](O[C@@H]2O[C@H](C)C[C@H](N(C)C)[C@H]2O)[C@](C)(O)C[C@@H](C)CN(C)[C@H](C)[C@@H](O)[C@]1(C)O [Azi, azithromycin] : MIC90 was 2

Data point: C=CC1=C(C(=O)O)N2C(=O)[C@@H](NC(=O)/C(=N\OCC(=O)O)c3csc(N)n3)[C@H]2SC1 [Cfx, cefixime] ; MIC90 = 0.25

The compound listed as CNc1cc(F)cc2c1[nH]c1nc(Oc3cnc(C)nc3)nc(N3CCC4(CC3)CO[C@@H](CO)C4)c12 [JSF-2414] shows MIC90 equal to 0.0078

// switching to the query compound
The recorded MIC90 for entry CO/N=C(\C(=O)N[C@@H]1C(=O)N2C(C(=O)O)=C(CSc3nc(=O)c(=O)[nH]n3C)CS[C@H]12)c1csc(N)n1 [Cro, ceftriaxone] equals 0.063

###

Tested on: N. gonorrhoeae clinical isolates
Test: MIC, agar dilution (CLSI)
Assay type: cell-based, Neisseria gonorrhoeae
Details: Neisseria gonorrhoeae, strain CDC82 (GCREF2013 031); read-out: MIC
quantity.kind: MIC (µg/mL)
Kindly provide the numeric value in µg/mL only, without the unit symbol.

The recorded MIC for CO/N=C(\C(=O)N[C@@H]1C(=O)N2C(C(=O)O)=C(CSc3nc(=O)c(=O)[nH]n3C)CS[C@H]12)c1csc(N)n1 is 0.031

The molecule listed as C=CC1=C(C(=O)O)N2C(=O)[C@@H](NC(=O)/C(=N\OCC(=O)O)c3csc(N)n3)[C@H]2SC1 has a reported MIC of 0.125

CC[C@H]1OC(=O)[C@H](C)[C@@H](O[C@H]2C[C@@](C)(OC)[C@@H](O)[C@H](C)O2)[C@H](C)[C@@H](O[C@@H]2O[C@H](C)C[C@H](N(C)C)[C@H]2O)[C@](C)(O)C[C@@H](C)CN(C)[C@H](C)[C@@H](O)[C@]1(C)O yielded MIC of 2

Continue with the next molecule.
# molecule CNc1cc(F)cc2c1[nH]c1nc(Oc3cnc(C)nc3)nc(N3CCC4(CC3)CO[C@@H](CO)C4)c12 ; its MIC = 0.0078
